- Test system: NCI-H727
- protocol-summary: relative viability (nuclei count vs DMSO), 5 days (fraction); higher = more cells survive
- particulars: first compound 0.8 µM
observed-property: relative viability
Returns: the value as a bare number; no unit string appended.

Examples with answers:
C=C1C(=O)O[C@@H](CCCCCCCC)[C@@H]1C(=O)O [C-75] + CC1(C)CCC(c2ccc(Cl)cc2)=C(CN2CCN(c3ccc(C(=O)NS(=O)(=O)c4ccc(N[C@H](CCN5CCOCC5)CSc5ccccc5)c(S(=O)(=O)C(F)(F)F)c4)cc3)CC2)C1 [Navitoclax] (partner 0.5 µM); 0.436
Oc1nc(-c2ccc(C(F)(F)F)cc2)nc2c1CSCC2 [XAV939] + COc1cccc2cc(-c3nc([C@H]4CC[C@H](C(=O)O)CC4)n4ncnc(N)c34)[nH]c12 [OSI-027] (partner 0.5 µM); 0.744
C=C1C(=O)O[C@@H](CCCCCCCC)[C@@H]1C(=O)O [C-75] + CCNC(=O)c1noc(-c2cc(C(C)C)c(O)cc2O)c1-c1ccc(CN2CCOCC2)cc1 [Luminespib] (partner 0.01 µM); 0.312

Okay, next one:
Inquiry: Data request, read-out relative viability, for C=C1C(=O)O[C@@H](CCCCCCCC)[C@@H]1C(=O)O [C-75] + NC(=O)Nc1cc(-c2cccc(F)c2)sc1C(=O)N[C@H]1CCCNC1 [AZD7762] (partner 0.2 µM)
Reply text: 0.4

###

- Test system: HCC-44
- protocol-summary: relative viability (nuclei count vs DMSO), 5 days (fraction); higher = more cells survive
- particulars: first compound 0.253 µM
observed-property: relative viability
No unit in the answer, please; the number alone is enough.

// worked examples, relative viability included
C=C1C(=O)O[C@@H](CCCCCCCC)[C@@H]1C(=O)O [C-75] + Nc1ncn([C@H]2C[C@H](O)[C@@H](CO)O2)c(=O)n1 [Decitabine] (partner 2 µM); 0.922
Oc1nc(-c2ccc(C(F)(F)F)cc2)nc2c1CSCC2 [XAV939] + N=C(N)NC(=N)NCCc1ccccc1 [Phenformin] (partner 250 µM); 0.219
C=C1C(=O)O[C@@H](CCCCCCCC)[C@@H]1C(=O)O [C-75] + NC(=O)Nc1cc(-c2cccc(F)c2)sc1C(=O)N[C@H]1CCCNC1 [AZD7762] (partner 0.2 µM); 1.05

Inquiry: Could you tell me which relative viability is on file for Oc1nc(-c2ccc(C(F)(F)F)cc2)nc2c1CSCC2 [XAV939] + CCNC(=O)c1noc(-c2cc(C(C)C)c(O)cc2O)c1-c1ccc(CN2CCOCC2)cc1 [Luminespib] (partner 0.01 µM) ?
Reply text: 0.981

Inquiry: Next entry: C=C1C(=O)O[C@@H](CCCCCCCC)[C@@H]1C(=O)O [C-75] + N=C(N)NC(=N)NCCc1ccccc1 [Phenformin] (partner 250 µM)
Reply text: 0.185

Inquiry: And for C=C1C(=O)O[C@@H](CCCCCCCC)[C@@H]1C(=O)O [C-75] + C[C@@H](Oc1cc(-c2cnn(C3CCNCC3)c2)cnc1N)c1c(Cl)ccc(F)c1Cl [Crizotinib] (partner 1 µM) ?
Reply text: 0.815

Inquiry: Next molecule up: Oc1nc(-c2ccc(C(F)(F)F)cc2)nc2c1CSCC2 [XAV939] + C[C@]1(O)C[C@@H](c2nc(-c3ccc4ccc(-c5ccccc5)nc4c3)c3c(N)nccn32)C1 [Linsitinib] (partner 1 µM)
Reply text: 0.673

Inquiry: What do you have for Oc1nc(-c2ccc(C(F)(F)F)cc2)nc2c1CSCC2 [XAV939] + CC1(C)CCC(c2ccc(Cl)cc2)=C(CN2CCN(c3ccc(C(=O)NS(=O)(=O)c4ccc(N[C@H](CCN5CCOCC5)CSc5ccccc5)c(S(=O)(=O)C(F)(F)F)c4)cc3)CC2)C1 [Navitoclax] (partner 0.5 µM) ?
Reply text: 0.945

Inquiry: // next record Oc1nc(-c2ccc(C(F)(F)F)cc2)nc2c1CSCC2 [XAV939] + Nc1nc2[nH]cc(CCc3ccc(C(=O)N[C@@H](CCC(=O)O)C(=O)O)cc3)c2c(=O)[nH]1 [Pemetrexed] (partner 0.2 µM)
Reply text: 0.59
